target: Recombinant human BACE1 (Homo sapiens, UniProt P56817); assay: Assay of BACE1 inhibiting activity; details: 50% inhibitory concentration against enzymatic activity, pH 5.0, 30° C., 3 hours
Sequence (P56817 46-501): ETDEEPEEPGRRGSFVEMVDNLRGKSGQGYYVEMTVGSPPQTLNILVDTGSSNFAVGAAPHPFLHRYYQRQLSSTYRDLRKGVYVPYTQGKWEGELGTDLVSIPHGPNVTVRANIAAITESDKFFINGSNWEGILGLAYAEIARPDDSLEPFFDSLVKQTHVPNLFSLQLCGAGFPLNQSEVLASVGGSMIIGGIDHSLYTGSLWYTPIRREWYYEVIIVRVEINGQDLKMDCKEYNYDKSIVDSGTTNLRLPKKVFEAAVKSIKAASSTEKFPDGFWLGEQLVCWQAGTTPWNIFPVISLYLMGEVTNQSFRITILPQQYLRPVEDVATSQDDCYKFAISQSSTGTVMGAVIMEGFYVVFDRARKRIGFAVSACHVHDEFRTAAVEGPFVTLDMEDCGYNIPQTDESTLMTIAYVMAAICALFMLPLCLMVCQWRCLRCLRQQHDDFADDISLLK
pIC50: −log10 of the molar value.
Measured Parameter: pIC50

Below, each entry is followed by its recorded pIC50 result.
- Compound: "CO/C(N)=N\\C(c1ccc(Cl)cc1)c1cccc(NC(=O)c2cnc(OC)cn2)c1 (stereo not drawn) [Compound 92]"
  Measured Parameter: "pIC50"
  Meas Value: "≥ 6.00"
- Compound: "CC#CCOc1cnc(C(=O)Nc2cccc(C/N=C(/N)SCCC)c2)cn1 [Compound 8]"
  Measured Parameter: "pIC50"
  Meas Value: "≥ 6.00"

Then there is this compound:
What does the record list as pIC50 for CC#CCOc1cnc(C(=O)Nc2cccc(C(/N=C(/N)SC)c3ccc(OC)cc3)c2)cn1 (stereo not drawn) [Compound 21] ? ≥ 6.00
